test: Ratio of drug uptake in medulla to cerebellum in anesthetized cynomolgus monkey after 155 mins postinjection; assay type: ADME, organism-based, Macaca fascicularis; details: in vivo
Outcome measure: Ratio

1. O=C(OCCC[18F])C1C2CCC(CC1c1cccc(/C=C\I)c1)N2 (centres undefined); 1.8
2. O=C(OCC[18F])C1C2CCC(CC1c1cccc(/C=C\Br)c1)N2 (centres undefined); 1.7
3. O=C(OCC[18F])C1C2CCC(CC1c1ccc(/C=C\I)cc1)N2 (centres undefined); 2.5
4. O=C(OCCC[18F])C1C2CCC(CC1c1cccc(/C=C\Br)c1)N2 (centres undefined); 1.7

====

system: Pons; experiment: Drug uptake in anesthetized cynomolgus monkey brain pons after 15.5 mins postinjection; assay type: ADME, organism-based, Macaca fascicularis; details: in vivo
Reported Drug uptake is given for each of the following molecules.
Outcome measure: Drug uptake

1. O=C(OCC[18F])C1C2CCC(CC1c1cccc(/C=C\Br)c1)N2 (stereo not given); 3.73
2. O=C(OCCC[18F])C1C2CCC(CC1c1cccc(/C=C\I)c1)N2 (stereo not given); 3.62
3. O=C(OCCC[18F])C1C2CCC(CC1c1cccc(/C=C\Br)c1)N2 (stereo not given); 4.79
4. O=C(OCC[18F])C1C2CCC(CC1c1ccc(/C=C\I)cc1)N2 (stereo not given); 2.14
5. O=C(OCC[18F])C1C2CCC(CC1c1cccc(/C=C\I)c1)N2 (stereo not given); 2.82
